# Tested on: MDR1
# ASSAY_NOTES: Efflux ratio of permeability in MDCK cells expressing human MDR1
# Assay type: ADME, cell-based, Canis lupus familiaris
# MEASUREMENT_CONTEXT: dog, MDCK-MDR1
EXPERIMENTAL_READOUT: efflux ratio

Examples with their reported efflux ratio follow.
CC[C@H](NC(=O)c1c(C[S@@+](C)[O-])c(-c2ccccc2)nc2ccccc12)c1ccccc1
2.6
CC[C@H](NC(=O)c1c([S@+](C)[O-])c(-c2ccccc2)nc2ccccc12)c1ccccc1
1.3
CC[C@H](NC(=O)c1c(CC[S+](C)[O-])c(-c2ccccc2)nc2ccccc12)c1ccccc1 (mixture of isomers)
21
CC[C@H](NC(=O)c1c(CS(C)(=O)=O)c(-c2ccccc2)nc2ccccc12)c1ccccc1 (mixture of isomers)
3.1

(1) CC[C@H](NC(=O)c1c(CSC)c(-c2ccccc2)nc2ccccc12)c1ccccc1 (mixture of isomers)
(2) CC[C@H](NC(=O)c1c([S+](C)[O-])c(-c2ccccc2)nc2ccccc12)c1ccccc1 (mixture of isomers)
// pick min by efflux ratio: 1 , 2 Answer with the label corresponding to your selection.
1

###

# System: MDR1
# ASSAY_NOTES: Apparent permeability across MDCK cells expressing human MDR1
# Assay type: ADME, cell-based, Canis lupus familiaris
# MEASUREMENT_CONTEXT: dog, MDCK-MDR1
EXPERIMENTAL_READOUT: Papp (×10⁻⁶ cm/s)

Completed entries (count: 3):
CC[C@H](NC(=O)c1c(C[S@+](C)[O-])c(-c2ccccc2)nc2ccccc12)c1ccccc1
9.9
CC[C@H](NC(=O)c1c(CSC)c(-c2ccccc2)nc2ccccc12)c1ccccc1 (mixture of isomers)
5.9
CC[C@H](NC(=O)c1c(C[S@@+](C)[O-])c(-c2ccccc2)nc2ccccc12)c1ccccc1
10

(a) CC[C@H](NC(=O)c1c(CC[S+](C)[O-])c(-c2ccccc2)nc2ccccc12)c1ccccc1 (mixture of isomers)
(b) CC[C@H](NC(=O)c1c([S@+](C)[O-])c(-c2ccccc2)nc2ccccc12)c1ccccc1
Min Papp? a | b Your choice should be expressed through its label.
a

###

# EXPERIMENTAL_TARGET: Neuromedin-K receptor (Homo sapiens)
# ASSAY_NOTES: Antagonist activity at human NK3 receptor expressed in CHO cells assessed as inhibition of senktide-induced calcium flux by FLIPR assay
pEC50: −log10 of the molar value.
EXPERIMENTAL_READOUT: pEC50

CC[C@H](NC(=O)c1c([S+](C)[O-])c(-c2cccc(F)c2)nc2ccccc12)c1ccccc1 (mixture of isomers)
7.74
C[S+]([O-])c1c(-c2ccccc2)nc2ccccc2c1C(=O)NC1(c2ccccc2)CCC1 (racemic)
7.42

(a) CC[C@H](NC(=O)c1c([S+](C)[O-])c(-c2ccccc2)nc2cc(N(C)C)ccc12)c1ccccc1 (mixture of isomers)
(b) CC[C@H](NC(=O)c1c(SC)c(-c2ccccc2)nc2ccccc12)c1ccccc1 (mixture of isomers)
(c) CC[C@H](NC(=O)c1c([S+](C)[O-])c(-c2cscn2)nc2ccccc12)c1ccccc1 (mixture of isomers)
Put the items in sequence by pEC50, from largest down. Your reply should list the labels following the order given in the request.
b, c, a

###

# EXPERIMENTAL_TARGET: Neuromedin-K receptor (Homo sapiens, UniProt P29371)
# Sequence (P29371 whole entry): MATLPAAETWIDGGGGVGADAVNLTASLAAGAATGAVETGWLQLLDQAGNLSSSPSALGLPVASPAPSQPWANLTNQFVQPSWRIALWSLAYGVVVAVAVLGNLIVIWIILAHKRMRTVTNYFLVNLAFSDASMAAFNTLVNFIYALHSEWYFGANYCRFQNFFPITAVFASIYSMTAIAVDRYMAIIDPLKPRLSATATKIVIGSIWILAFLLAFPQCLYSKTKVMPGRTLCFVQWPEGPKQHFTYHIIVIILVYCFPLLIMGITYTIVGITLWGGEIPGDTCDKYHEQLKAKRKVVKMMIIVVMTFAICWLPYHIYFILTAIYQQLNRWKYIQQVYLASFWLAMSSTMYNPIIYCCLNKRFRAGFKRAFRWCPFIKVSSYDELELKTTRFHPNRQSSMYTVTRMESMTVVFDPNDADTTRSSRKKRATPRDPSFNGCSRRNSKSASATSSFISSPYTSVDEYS
# ASSAY_NOTES: Antagonist activity at human NK3 receptor expressed in CHO cells assessed as inhibition of senktide-induced calcium flux by FLIPR assay
# Type: functional, cell-based
EXPERIMENTAL_READOUT: EC50 (nM)

Worked cases, answers included:
CC[C@H](NC(=O)c1c(C[S@@+](C)[O-])c(-c2ccccc2)nc2ccccc12)c1ccccc1
1.8
CC[C@H](NC(=O)c1c([S+](C)[O-])c(-c2ccccc2)nc2c(C)cccc12)c1ccccc1 (mixture of isomers)
1900

(A) CC[C@H](NC(=O)c1c([S+](C)[O-])c(-c2cccnc2)nc2ccccc12)c1ccccc1 (single isomer, unassigned)
(B) CCOc1ccc2c(C(=O)N[C@@H](CC)c3ccccc3)c([S+](C)[O-])c(-c3ccccc3)nc2c1 (mixture of isomers)
Between item A and item B , which reported EC50 is smaller? To answer, give the label that identifies your chosen option.
B
(B: 38 nM, A: 690 nM)
